TEST METHOD NOTES: Quantitative High-Throughput drug screen in 47 multiple myeloma cell lines against the NCATS MIPE library collection: LP1_DSMZ cell viability assay (AID 1918982); note: nearly all actives have a fitted effect of over 35% in size
STATED CONDITIONS: LP1 myeloma viability, CellTiter-Glo ATP luminescence, 48 h; series mostly up to 45.8 µM
Results filed as inconclusive are left out. Calls of active or inactive are those of the source. Calls come from the whole dose curve; as a rule, active = well fitted cell-killing curve with a large enough effect; inconclusive = small, poorly fitted or top-dose-only effect, or effect the other way; inactive = no such curve, though single readings can be large or run the other way. Starred links: 1 amine or outer side, 2 acyl side, 3 side chain; linkers in the order of their positions; H or OH if unused. Positions of bridges follow the written chain, without caps; N, C: chain ends. Non-standard residues stand in square brackets, D forms with d. Residues, ends and D or L forms follow the SMILES beside them. Chains are numbered I, II in the order given. Actinocin(9to1) = Cc1c2oc3c(C)ccc(C(=O)[*:1])c3nc-2c(C(=O)[*:2])c(N)c1=O; NMeV = CN[CH](C(=O)O)C(C)C; Sar = CNCC(=O)O
Thanks in advance; please answer with one of these: active, inactive

Use these answered entries as a reference point.
Outcome logged for CCOC(=O)N1CCN([N+]([O-])=NOc2ccc([N+](=O)[O-])cc2C#N)CC1 in this assay:
active

Outcome logged for COC(=O)[C@H](CCCN=C(N)N)NS(=O)(=O)c1ccc(C)cc1 in this assay:
inactive

Outcome logged for CCOc1cc2c(c(F)c1OCC)C(=N)N(CC(=O)c1cc(N3CCOCC3)c(OC)c(C(C)(C)C)c1)C2 in this assay:
active

Outcome logged for O=C(C[C@@H]1CC=CCCC(=O)O[C@H](c2ccccc2)CNC1=O)NCc1ccc(Cl)cc1 in this assay:
inactive

Outcome logged for C=Cc1c(C)c2cc3nc(cc4[nH]c(cc5nc(cc1[nH]2)C(C)=C5CCC(=O)O)c(CCC(=O)OC)c4C)[C@@]1(C)C3=CC=C(C(=O)OC)[C@H]1C(=O)OC in this assay:
active

Outcome logged for COc1ccc(S(=O)(=O)Nc2cccnc2Nc2ccc(O)cc2)cc1 in this assay:
active

Outcome logged for N#CC(=C(O)c1ccc(Cl)cc1Cl)c1nc2cc(Cl)ccc2c(=O)[nH]1 in this assay:
inactive

Outcome logged for O=c1ccn([C@@H]2O[C@H](CO)[C@H](O)[C@@H]2F)c(=O)[nH]1 in this assay:
inactive

Outcome logged for CC(C)[C@H](CO)Nc1nc(Nc2cccc(Cl)c2)c2ncn(C(C)C)c2n1 in this assay:
active

Outcome logged for COc1ccc2c(c1OC)C(=O)OC2[C@H]1c2c(cc3c(c2OC)OCO3)CCN1C (stereo partly specified) in this assay:
active

Further cases:
Outcome logged for N#CNC(=NCCCCCCOc1ccc(Cl)cc1)Nc1ccncc1 in this assay:
active

Outcome logged for Cn1cnc2c(F)c(Nc3ccc(Br)cc3F)c(C(=O)NOCCO)cc21 in this assay:
inactive

Outcome logged for Cc1c2oc3c(C)ccc(C(=O)NC4C(=O)NC(C(C)C)C(=O)N5CCCC5C(=O)N(C)CC(=O)N(C)C(C(C)C)C(=O)OC4C)c3nc-2c(C(=O)NC2C(=O)NC(C(C)C)C(=O)N3CCCC3C(=O)N(C)CC(=O)N(C)C(C(C)C)C(=O)OC2C)c(N)c1=O (stereo unspecified) (I: TVP[Sar][NMeV] / II: TVP[Sar][NMeV]; ester I:1-I:C, II:1-II:C; linker I:N-II:N via Actinocin(9to1); configuration not given here) in this assay:
inactive

Outcome logged for NC1=N[C@H]2[C@H](CS[C@H]2CCCCC(=O)O)N1 in this assay:
inactive

Outcome logged for Cc1cnc(Nc2ccc(CN3CCOCC3)cc2)nc1Nc1cccc(S(=O)(=O)NC(C)(C)C)c1 in this assay:
active

Outcome logged for CC(C)(O)Cn1c(NC(=O)c2ccc(-c3cn[nH]c3)s2)nc2cc(CN3CCOCC3)ccc21 in this assay:
active

Outcome logged for O=C(O)CCCCCC(=O)NN=C1CCCC1 in this assay:
inactive

Outcome logged for CCc1ccc(C(=O)Nc2cc(CN3CCN(C)CC3)cc(C(F)(F)F)c2)cc1C#Cc1cnc2ccnn2c1 in this assay:
active

Outcome logged for C[C@H](NC(=O)[C@@H](O)c1cc(F)cc(F)c1)C(=O)N[C@@H]1C(=O)N(C)c2ccccc2-c2ccccc21 in this assay:
inactive

====

TEST METHOD NOTES: qHTS Screen of the MIPE 4.0 Collection Against Ewings Sarcoma (EW8) (AID 1259255); note: nearly all actives have a fitted effect of over 35% in size;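 for viability: 100% = DMSO-treated cells and 0% = medium-only wells without cells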
STATED CONDITIONS: EW8 Ewing sarcoma viability, CellTiter-Glo, 48 h; series mostly up to 45.8 µM
Records with an inconclusive call do not appear. Calls of active or inactive are those of the source. The call rests on the fitted dose curve; in most records, active means well fitted inhibition curve with a large enough effect; inconclusive means small, poorly fitted or top-dose-only effect; inactive means no such curve, though single readings can be large or run the other way.
Thanks in advance; please answer with one of these: active, inactive

Use these answered entries as a reference point.
Outcome logged for CC(=O)N[C@@H]1[C@H](O[C@@H]2c3ccc(c(Cl)c3)Oc3cc4cc(c3O[C@H]3O[C@H](CO)[C@@H](O)[C@H](O)[C@H]3NC(=O)CCCCCCCC(C)C)Oc3ccc(cc3Cl)C[C@H]3NC(=O)[C@H](N)c5ccc(O)c(c5)Oc5cc(O)cc(c5)[C@H](NC3=O)C(=O)N[C@H]4C(=O)N[C@H]3C(=O)N[C@@H]2C(=O)N[C@@H](C(=O)O)c2cc(O)cc(O[C@H]4O[C@H](CO)[C@@H](O)[C@H](O)[C@H]4O)c2-c2cc3ccc2O)O[C@H](CO)[C@@H](O)[C@@H]1O in this assay:
inactive

Outcome logged for N#CC(=C(N)Sc1ccc(N)cc1)c1ccccc1C(F)(F)F in this assay:
active

Outcome logged for CCCCOc1ccc(C(=O)Nc2ccc(F)cc2F)cc1 in this assay:
inactive

Outcome logged for C[C@H]1COc2c(N3CCN(C)CC3)c(F)cc3c(=O)c(C(=O)O)cn1c23 in this assay:
inactive

Outcome logged for CC[C@H](CC[C@@H](C)[C@H]1CC[C@H]2[C@@H]3CC=C4C[C@@H](O)CC[C@]4(C)[C@@H]3CC[C@]12C)C(C)C in this assay:
inactive

Shift focus to the following entry.
Outcome logged for CS(=O)(=O)N1CCc2c(-c3cnc(N)nc3)nc(N3CCOCC3)nc21 in this assay:
active

====

Test system: AS120
TEST METHOD NOTES: qHTS profiling for inhibitors of Plasmodium falciparum proliferation (AID 504749); note: nearly all actives have a fitted effect of over 60% in size
STATED CONDITIONS: P. falciparum in erythrocytes, SYBR Green DNA, 72 h; series mostly up to 28.7 µM
Inconclusive results are not listed. Activity calls are given as the source filed them. The call rests on the fitted dose curve; in most records, active means well fitted inhibition curve with a large enough effect; inconclusive means small, poorly fitted or top-dose-only effect; inactive means flat fitted curve, though single readings scatter.
Thanks in advance; please answer with one of these: label 1 for active, label 0 for inactive

Use these answered entries as a reference point.
Outcome logged for CCC(C(=O)O)C1CCC(C)C(C(C)C(O)C(C)C(=O)C(CC)C2OC3(C=CC(O)[C@@]4(CC[C@](C)(C5CC[C@@](O)(CC)C(C)O5)O4)O3)C(C)CC2C)O1 (stereo not given in full) in this assay:
label 1

Outcome logged for OCC(O)C(O)C(O)CO (stereo not given) in this assay:
label 0

Outcome logged for CCCCCCCCCCCC(CC1OC(=O)C1CCCCCC)OC(=O)C(CC(C)C)NC=O (stereo not given) in this assay:
label 1

Outcome logged for COc1cccc2c1C(=O)c1c(O)c3c(c(O)c1C2=O)C[C@@](O)(C(=O)CO)C[C@@H]3O[C@H]1C[C@H](N)[C@H](OC2CCCCO2)[C@H](C)O1 (stereo not given in full) in this assay:
label 1

Shift focus to the following entry.
Outcome logged for COc1ccc([C@@H]2CNC(=O)C2)cc1OC1CCCC1 in this assay:
label 0

====

System: UISO
TEST METHOD NOTES: qHTS assay to identify novel small-molecules to repurpose for Merkel cell carcinoma treatment (AID 1296009); note: nearly all actives have a fitted effect of over 60% in size
STATED CONDITIONS: MCC and control cell lines, CellTiter-Glo viability, 72 h; series mostly up to 46 µM
Description: MCC is a rare and aggressive neuroendocrine skin cancer with limited treatment options. Approximately 80% of MCCs have the Merkel cell polyomavirus (MCPyV) DNA integrated into the host genome (virus-positive: VP-MCC) and viral oncogenes drive oncogenesis. The remaining MCCs are virus-negative (VN-MCC) and are caused by UV mutagenesis. […] Using cell viability as a readout (CellTiter-Glo assay) we found both overlapping and distinct drugs that can be repurposed for the treatment of VP-MCC and VN-MCC. […]
Results filed as inconclusive are left out. The source made the active and inactive calls. Calls come from the whole dose curve; as a rule, active = well fitted inhibition curve with a large enough effect; inconclusive = small, poorly fitted or top-dose-only effect; inactive = flat fitted curve, though single readings scatter. Starred links: 1 amine or outer side, 2 acyl side, 3 side chain; linkers in the order of their positions; H or OH if unused. Positions of bridges follow the written chain, without caps; N, C: chain ends. Non-standard residues stand in square brackets, D forms with d. Residues, ends and D or L forms follow the SMILES beside them. Chains are numbered I, II in the order given. Actinocin(9to1) = Cc1c2oc3c(C)ccc(C(=O)[*:1])c3nc-2c(C(=O)[*:2])c(N)c1=O; NMeV = CN[CH](C(=O)O)C(C)C; Sar = CNCC(=O)O
Thanks in advance; please answer with one of these: yes (1) (active), no (0) (inactive)

Use these answered entries as a reference point.
Outcome logged for Cc1c2oc3c(C)ccc(C(=O)NC4C(=O)NC(C(C)C)C(=O)N5CCCC5C(=O)N(C)CC(=O)N(C)C(C(C)C)C(=O)OC4C)c3nc-2c(C(=O)NC2C(=O)NC(C(C)C)C(=O)N3CCCC3C(=O)N(C)CC(=O)N(C)C(C(C)C)C(=O)OC2C)c(N)c1=O (configuration not stated) (I: TVP[Sar][NMeV] / II: TVP[Sar][NMeV]; ester I:1-I:C, II:1-II:C; linker I:N-II:N via Actinocin(9to1); configuration not given here) in this assay:
no (0)

Outcome logged for C[C@@H]1C(=O)O[C@H]2CC34[C@H]5C[C@@H](C(C)(C)C)C36[C@H](OC(=O)[C@@H]6O)O[C@@]4(C(=O)O5)[C@]21O (some centres not stated) in this assay:
no (0)

Outcome logged for CCC(C=C[C@@H]1OC(=O)C=C[C@H]1C)=C[C@H](C)CC=CC(C)=C[C@@H](C)C(=O)[C@@H](C)[C@H](O)[C@@H](C)CC(C)=CC(=O)O in this assay:
yes (1)

Outcome logged for CCCCCCCN(CC)CCCC(O)c1ccc(NS(C)(=O)=O)cc1 (configuration not stated) in this assay:
no (0)

Outcome logged for CC(C)(C)[N+]([O-])=Cc1ccc(S(=O)(=O)O)cc1S(=O)(=O)O in this assay:
no (0)

Outcome logged for c1cc(N[C@@H]2CCNC2)nc(-c2cnc3ccc(-c4cn[nH]c4)cn23)c1 in this assay:
yes (1)

Shift focus to the following entry.
Outcome logged for CC(=O)C1=C(O)C=C2Oc3c(C(C)=O)c(O)c(C)c(O)c3C2(C)C1=O (configuration not stated) in this assay:
no (0)
